target system: HA of A/Kawasaki/9/86 (H1N1) virus (influenza A virus)
assay overview: cell-based or functional assay
measure: Neutralization IC50, H1-Kaw86
Record the result as a number with its unit.

Recorded Neutralization IC50, H1-Kaw86, per entry:
binder	measure	data value
Antibody 6 (antibody, V domains shown) VH: QVQLQQSGPGLVKPSQTLSLTCAISGDRVSSNSAVWNWIRQSPSRGLEWLGRTYYRSKWYYDYAESVKSRIVIDPDTSKNQVSLQLNSVTPEDSAIYYCARGGHITEFGLNIDAYDIWGQGAMVTVSS VL: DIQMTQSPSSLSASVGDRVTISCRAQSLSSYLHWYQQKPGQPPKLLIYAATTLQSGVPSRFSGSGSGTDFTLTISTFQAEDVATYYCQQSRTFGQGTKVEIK	Neutralization IC50, H1-Kaw86	3.51 mg/L
Antibody 8 (antibody, V domains shown) VH: QVQLQQSGPGLVKPSQTLSLTCVISGDTVSSNRATWNWMRQSPLRGLEWLGRTYYRSKWYNDYAVSVKSRVVINPDTSKNQVSLQLNTVTPDDSGVYFCARGGHITVFGVNIDAFDIWGLGTKVTVSS VL: DIQMTQSPSSLSASVGDRVTISCRASQRLNSYLHWYQQTPGQAPKLLIYATSTLQSGVSPRFSGSGSGTDFTLTISSLQPEDVATYYCQLSRTFGHGTKVEIK	Neutralization IC50, H1-Kaw86	2.11 mg/L
Antibody 10 (antibody, V domains shown) VH: QVQLQQSGPGLVKPSQTLSLTCAISGDSVSSNSATWNWIRQSPSRGLEWLGRTYYRSKWYNDYADFLKRRITINPDTSNNEVSLRLTSVTPDDTALYYCARGGHITVFGVNIDAFDVWGQGTMVTVSS VL: DIQMTQSPSSLSASVGDRITISCRTSQSLRSYLHWYQQKPGKAPKLLIYASSTLQSGVPSRFSGSGSGTDFTLTISNLQPEDFATYYCQLSRTFGQGTKVEIK	Neutralization IC50, H1-Kaw86	1.62 mg/L

In the following, a different binder is considered.
Q: What Neutralization IC50, H1-Kaw86 value was documented for this binder, Antibody 3 (antibody, V domains shown) VH: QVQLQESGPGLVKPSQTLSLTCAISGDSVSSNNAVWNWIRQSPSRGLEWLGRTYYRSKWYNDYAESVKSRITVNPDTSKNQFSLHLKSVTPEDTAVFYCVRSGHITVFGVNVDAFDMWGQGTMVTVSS VL: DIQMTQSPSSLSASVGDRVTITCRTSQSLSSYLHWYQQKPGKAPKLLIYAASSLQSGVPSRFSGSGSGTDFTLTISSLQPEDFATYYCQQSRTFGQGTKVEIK ?
Ans: 0.58 mg/L
